Test: physchem
Condition info: 22 °C, organic solvent or mixture, thermodynamic from solid, Solubility in CH2Cl2
Experimental: Determination of the small molecule content in a complex plant matrix depends on the understanding of minimum solubility in the chosen extraction solvent. […] For each of the 29 reference compounds, 2 mg was weighed into a 15 mL glass tube and dissolved in the minimum amount of the test solvent by gradually adding the solvent with a micropipette until complete dissolution or to a final volume of 10.0 mL. […] The consumed solvents and their volumes were recorded for each reference compound.
molecules and their reported solubility
Measurement type: solubility

>>> df
                                   molecule      measured
0     C/C(=C\CNc1ncnc2[nH]cnc12)CO [Zeatin]  < 0.19 mg/mL
1           O=C(O)c1cccnc1 [Nicotinic acid]  < 0.19 mg/mL
2  C=C1CC[C@H](O)C/C1=C/C=C1\CCC[C@]2(C)[C@@H]([C@H](C)CCCC(C)C)CC[C@@H]12 [Vitamin D3]     100 mg/mL
3       c1cncc([C@@H]2CCCCN2)c1 [Anabasine]    10.3 mg/mL

* * *

Test: physchem
Condition info: 22 °C, organic solvent or mixture, thermodynamic from solid, Solubility in EtOH, solvent ethanol; room temperature (21–23 °C)
Measurement type: log10 solubility (log10 of the value in mg/mL)

In [3]: df
Out[3]:
                                   compound  measurement_type  measured
0             NC(=O)c1cccnc1 [Nicotinamide]  log10 solubility      1.32
1  CC(C)=CCC/C(C)=C/CC/C(C)=C/CC/C=C(\C)CC/C=C(\C)CCC=C(C)C  log10 solubility      0.77
2                        c1cncc(C2=NCCC2)c1  log10 solubility      2.62
3    C1=CCC(c2cccnc2)NC1 (centres unmarked)  log10 solubility      2.69
4                    c1cncc([C@@H]2CCCN2)c1  log10 solubility      2.60
5             CCCCC/C=C\C/C=C\CCCCCCCC(=O)O  log10 solubility      2.75

* * *

Test: physchem
Condition info: 22 °C, organic solvent or mixture, thermodynamic from solid, Solubility in MeOH/H2O (7:3)
compounds and their reported solubility
Measurement type: solubility (µg/mL)

>>> print(df.to_string())
                                smiles_code  result_qualifier  measured
0              C/C(=C\CNc1ncnc2[nH]cnc12)CO                 =      3030
1                   c1cncc([C@@H]2CCCCN2)c1                 =    109000
2  C=C1CC[C@H](O)C/C1=C/C=C1\CCC[C@]2(C)[C@@H]([C@H](C)CCCC(C)C)CC[C@@H]12                 <       190
3                            O=C(O)c1cccnc1                 =      2850

* * *

Test: Rapid solubility test of pure reference compounds in 7 solvents
Condition info: CH2Cl2/MeOH (4:1, v/v), 22 °C, organic solvent or mixture, thermodynamic from solid, Solubility in CH2Cl2/MeOH (4:1), solvent CH2Cl2/MeOH (4:1, v/v); room temperature (21–23 °C)
compounds and their reported solubility
Measurement type: solubility (mg/mL)

In [3]: df
Out[3]:
                                   compound  measured
0  C=C[C@](C)(O)CC[C@@H]1[C@@]2(C)CCCC(C)(C)[C@@H]2CC[C@@]1(C)O       219
1                  CN1C(=O)CC[C@H]1c1cccnc1       208
2    C=CC(C)(O)CCC=C(C)C (stereo not shown)       462
3             CC(C)=CCC/C(C)=C/CC/C(C)=C/CO       348
